Task for the reader: assign each of the following compounds its reported Plant response rating, Giant foxtail.
- Tested on: giant foxtail
- assayNotes: Test B pre/postemergence giant foxtail
- Format: in vivo, Setaria faberii
- studyConditions: Preemergence, Rate 500 g/ha; scale of 0 to 10 where 0 is no effect and 10 is complete control
// no unit string in output, number only

Query :: Requested field: Plant response rating, Giant foxtail. Item: COC(=O)C(c1ccccc1)n1c(=O)on(C(=O)N(c2ccc(F)cc2)C(C)C)c1=O (stereo not drawn)
Result :: 10

Query :: Requested field: Plant response rating, Giant foxtail. Item: CCCCCC#CCn1c(=O)on(C(=O)N(c2ccc(F)cc2)C(C)C)c1=O
Result :: 10

Query :: Requested field: Plant response rating, Giant foxtail. Item: CC(C)N(C(=O)n1oc(=O)n(C(C)C(=O)c2ccccc2)c1=O)c1ccc(F)cc1 (stereo not drawn)
Result :: 10

* * *

- Test system: blackgrass
- assayNotes: Test B pre/postemergence blackgrass
- Format: in vivo, Alopecurus myosuroides
- studyConditions: Postemergence, Rate 62 g/ha; scale 0 to 10, 0 is no effect, 10 is complete control
readoutName: Blackgrass plant response rating
// no unit string in output, number only

Query :: Requested field: Blackgrass plant response rating. Item: Cc1cccc(C)c1-n1c(=O)on(C(=O)N(c2ccccc2)C(C)C)c1=O [Compound 46]
Result :: 0

Query :: Requested field: Blackgrass plant response rating. Item: Cc1ccccc1-n1c(=O)on(C(=O)N(c2ccc(F)cc2)C(C)C)c1=O [Compound 4]
Result :: 0

Query :: Requested field: Blackgrass plant response rating. Item: CC(C)N(C(=O)n1oc(=O)n(Cc2cccs2)c1=O)c1ccc(F)cc1 [Compound 80]
Result :: 2

Query :: Requested field: Blackgrass plant response rating. Item: COc1ccc(-n2c(=O)on(C(=O)N(c3ccc(F)cc3)C(C)C)c2=O)c(C)c1 [Compound 35]
Result :: 0

Query :: Requested field: Blackgrass plant response rating. Item: CCN(C(=O)n1oc(=O)n(-c2c(C)cc(C)cc2C)c1=O)C1CCCCC1 [Compound 63]
Result :: 0

* * *

- Tested on: morningglory
- assayNotes: Test B pre/postemergence morningglory
- Assay type: in vivo, Ipomoea hederacea
- studyConditions: Preemergence, Rate 62 g/ha; scale 0 to 10 (0 no effect, 10 complete control)
readoutName: Morningglory plant response rating
// no unit string in output, number only

Query :: Requested field: Morningglory plant response rating. Item: CC(C)N(C(=O)n1oc(=O)n(C2CCCCC2)c1=O)c1ccc(F)cc1 [Compound 110]
Result :: 0

Query :: Requested field: Morningglory plant response rating. Item: CC(C)N(C(=O)n1oc(=O)n(C2CCCCC2C(F)(F)F)c1=O)c1ccc(F)cc1 (centres unmarked) [Compound 99]
Result :: 0

Query :: Requested field: Morningglory plant response rating. Item: CCn1c(=O)on(C(=O)N(c2ccc(Cl)cc2)C(C)C)c1=O [Compound 108]
Result :: 0

Query :: Requested field: Morningglory plant response rating. Item: CC(=O)OCC(CCl)n1c(=O)on(C(=O)N(c2ccc(F)cc2)C(C)C)c1=O (centres unmarked) [Compound 596]
Result :: 0

Query :: Requested field: Morningglory plant response rating. Item: CC(C)N(C(=O)n1oc(=O)n(Cc2cccs2)c1=O)c1ccccc1 [Compound 103]
Result :: 0

Query :: Requested field: Morningglory plant response rating. Item: C=CCn1c(=O)on(C(=O)N(c2ccccc2)C(C)C)c1=O [Compound 93]
Result :: 0

Query :: Requested field: Morningglory plant response rating. Item: COCn1c(=O)on(C(=O)N(c2ccc(Cl)cc2)C(C)C)c1=O [Compound 533]
Result :: 0

Query :: Requested field: Morningglory plant response rating. Item: CCOCn1c(=O)on(C(=O)N(c2ccccc2)C(C)C)c1=O [Compound 563]
Result :: 0

Query :: Requested field: Morningglory plant response rating. Item: CC(C)N(C(=O)n1oc(=O)n(C2CCCCC2)c1=O)c1ccc(Cl)cc1 [Compound 111]
Result :: 0

Query :: Requested field: Morningglory plant response rating. Item: CCCn1c(=O)on(C(=O)N(c2ccc(Cl)cc2)C(C)C)c1=O [Compound 119]
Result :: 0

Query :: Requested field: Morningglory plant response rating. Item: CC(C)N(C(=O)n1oc(=O)n(CC2CCCCO2)c1=O)c1ccc(F)cc1 (centres unmarked) [Compound 624]
Result :: 0

Query :: Requested field: Morningglory plant response rating. Item: CC(C)N(C(=O)n1oc(=O)n(CC2CC2)c1=O)c1ccccc1 [Compound 568]
Result :: 0

Query :: Requested field: Morningglory plant response rating. Item: Cc1nn(C)c(C)c1-n1c(=O)on(C(=O)N(c2ccccc2)C(C)C)c1=O [Compound 120]
Result :: 0

Query :: Requested field: Morningglory plant response rating. Item: Cc1nn(C)c(C)c1-n1c(=O)on(C(=O)N(c2ccc(F)cc2)C(C)C)c1=O [Compound 75]
Result :: 0

Query :: Requested field: Morningglory plant response rating. Item: CC(C)N(C(=O)n1oc(=O)n(Cc2cccs2)c1=O)c1ccc(F)cc1 [Compound 80]
Result :: 0

Query :: Requested field: Morningglory plant response rating. Item: CCC(C)n1c(=O)on(C(=O)N(c2ccc(F)cc2)C(C)C)c1=O (centres unmarked) [Compound 613]
Result :: 0

Query :: Requested field: Morningglory plant response rating. Item: CCc1nc(C)c(C(C)n2c(=O)on(C(=O)N(c3ccc(F)cc3F)C(C)C)c2=O)s1 (centres unmarked) [Compound 589]
Result :: 0

* * *

- Test system: crabgrass
- assayNotes: Test B pre/postemergence crabgrass
- Format: in vivo, Digitaria sanguinalis
- studyConditions: Rate 62 g/ha, Postemergence; scale 0 to 10 (0 no effect, 10 complete control)
readoutName: Crabgrass plant response rating
// no unit string in output, number only

Query :: Requested field: Crabgrass plant response rating. Item: CC(C)N(C(=O)n1oc(=O)n(CCC[Si](C)(C)C)c1=O)c1ccc(F)cc1
Result :: 0

Query :: Requested field: Crabgrass plant response rating. Item: CC(C)N(C(=O)n1oc(=O)n(-c2ccc3ccccc3c2)c1=O)c1ccc(F)cc1F
Result :: 0

Query :: Requested field: Crabgrass plant response rating. Item: CC(C)C(=O)Cn1c(=O)on(C(=O)N(c2ccc(Cl)cc2)C(C)C)c1=O
Result :: 0

Query :: Requested field: Crabgrass plant response rating. Item: COC(CCl)n1c(=O)on(C(=O)N(c2ccc(Cl)cc2)C(C)C)c1=O (centres unmarked)
Result :: 2

Query :: Requested field: Crabgrass plant response rating. Item: COC(=O)C(C)n1c(=O)on(C(=O)N(c2ccc(F)cc2F)C(C)C)c1=O (centres unmarked)
Result :: 0

Query :: Requested field: Crabgrass plant response rating. Item: CC(C)N(C(=O)n1oc(=O)n(CCCN(C)C)c1=O)c1ccc(F)cc1
Result :: 0

Query :: Requested field: Crabgrass plant response rating. Item: COCC(OC)n1c(=O)on(C(=O)N(c2ccc(F)cc2)C(C)C)c1=O (centres unmarked)
Result :: 5

Query :: Requested field: Crabgrass plant response rating. Item: CC(C)N(C(=O)n1oc(=O)n(CC2=NOCCC2)c1=O)c1ccc(Cl)cc1
Result :: 0

Query :: Requested field: Crabgrass plant response rating. Item: CC(C)N(C(=O)n1oc(=O)n(CCCF)c1=O)c1ccc(F)cc1
Result :: 2

Query :: Requested field: Crabgrass plant response rating. Item: CC(C)N(C(=O)n1oc(=O)n(C2CCCCO2)c1=O)c1ccc(F)cc1 (centres unmarked)
Result :: 0

Query :: Requested field: Crabgrass plant response rating. Item: Cc1c(-n2c(=O)on(C(=O)N(c3ccc(F)cc3F)C(C)C)c2=O)ccc2ccccc12
Result :: 0

* * *

Task for the reader: assign each of the following molecules its reported Wild oats plant response rating (0 to 10 scale).
- Test system: wild oat
- assayNotes: Test B pre/postemergence wild oat
- Assay type: in vivo, Avena fatua
- studyConditions: Preemergence, Rate 250 g/ha
// no unit string in output, number only

Query :: Lookup: Wild oats plant response rating (0 to 10 scale) / wild oat / CC(C)N(C(=O)n1oc(=O)n(CCCCF)c1=O)c1ccccc1 [Compound 581]
Result :: 0

Query :: Lookup: Wild oats plant response rating (0 to 10 scale) / wild oat / COCn1c(=O)on(C(=O)N(c2ccc(Cl)cc2)C(C)C)c1=O [Compound 533]
Result :: 9

Query :: Lookup: Wild oats plant response rating (0 to 10 scale) / wild oat / CCC(=O)Cn1c(=O)on(C(=O)N(c2ccc(Cl)cc2)C(C)C)c1=O [Compound 553]
Result :: 3

Query :: Lookup: Wild oats plant response rating (0 to 10 scale) / wild oat / COC(=O)CCCn1c(=O)on(C(=O)N(c2ccccc2)C(C)C)c1=O [Compound 572]
Result :: 0

Query :: Lookup: Wild oats plant response rating (0 to 10 scale) / wild oat / CC(=O)C(C)n1c(=O)on(C(=O)N(c2ccccc2)C(C)C)c1=O (centres unmarked) [Compound 576]
Result :: 3
